Give growth inhibition for every item shown.
assay: NCI Yeast Anticancer Drug Screen. Data for the mlh1 rad18 strain (AID 175); details: S. cerevisiae mlh1 rad18 strain growth inhibition; at 50.0 µM; hits give high values
Compounds without any hit were thinned out: in the full panel of roughly 79,000, 15% have a hit.
Give a bare numeral; the unit % is implied.

Suppose we examine the compound `Nc1cc2c(cc1Br)-c1c(C(=O)O)cccc1C2=O` ; what growth inhibition value has been reported?
-13.1

Suppose we examine the compound `C/C(CC(=O)NCCc1ccccc1)=N\NS(=O)(=O)c1ccc(C)cc1` ; what growth inhibition value has been reported?
8

Suppose we examine the compound `N#Cc1cc2c3ccccc3ncc2c2ccccc12` ; what growth inhibition value has been reported?
-6

Suppose we examine the compound `CCC(=O)c1nc(N)[nH]c1CC` ; what growth inhibition value has been reported?
-6.45

Suppose we examine the compound `CCOC(=O)Nc1cccc(F)c1` ; what growth inhibition value has been reported?
-0.5

Suppose we examine the compound `[O-][n+]1ccncc1Cl` ; what growth inhibition value has been reported?
7.05

Suppose we examine the compound `COc1ccc(Nc2nc3c(N)cc(C(F)(F)F)cc3nc2-c2ccccc2)cc1` ; what growth inhibition value has been reported?
1.4

Suppose we examine the compound O=C1C2C3CC(C4C5C=CC(C5)C34)C2C2C3CC(C12)C1C2C=CC(C2)C31 (stereo unspecified) ; what growth inhibition value has been reported?
-24.4

Suppose we examine the compound `O=C1OC(=O)c2c(Br)c(Br)c(Br)c(Br)c21` ; what growth inhibition value has been reported?
2.7

Suppose we examine the compound `O=C(NNC(=O)Nc1ccccc1)Nc1ccccc1` ; what growth inhibition value has been reported?
-7

Suppose we examine the compound `CCOc1c(C(=O)O)cnc2ccccc12` ; what growth inhibition value has been reported?
-0.75

Hello, the source for this data is PubChem BioAssay (NCI), in case you need it.
